Reported values of protein stability index for individual entries
- Tested on: Saccharomyces cerevisiae
- TEST: protein stability index of tFT-peptide fusion (C-terminal peptide) (PSI (0-1 scale)); higher = more stable (slower turnover)
- ASSAY_SETUP: genetic background: wild type; temperature: 37 C
MEASURED_ATTRIBUTE: protein stability index

| RESIDUE_CODES | TEST_SYSTEM | ENDPOINT_VALUE |
| --- | --- | --- |
| DCRFIIFYCVMV | Saccharomyces cerevisiae | 0.506 |
| VLVVVRSLSFLS | Saccharomyces cerevisiae | 0.496 |
| YRLTIVWFFLAL | Saccharomyces cerevisiae | 0.513 |

* * *

- Tested on: Saccharomyces cerevisiae
- TEST: protein stability index of tFT-peptide fusion (C-terminal peptide) (PSI (0-1 scale)); higher = more stable (slower turnover)
- ASSAY_SETUP: genetic background: wild type; temperature: 30 C
Reported values of protein stability index for individual entries

| RESIDUE_CODES | protein stability index |
| --- | --- |
| VPVMVVCVPSKE | 0.715 |
| TIRHKALTRKSR | 0.713 |
| WFGSPRCVGGQL | 0.703 |
| GAPSHVTPLPQI | 0.686 |
| PPSRLLFPSPPA | 0.683 |
| VPALLPLLPSPP | 0.712 |
| AETYASFHLTDP | 0.712 |
| RTAYLLRCLTTD | 0.681 |
| VRFPVEPYEAMF | 0.71 |
| RLGLRWSPHSSP | 0.707 |
| HSCYGHIRVSFC | 0.705 |
| PPPAPTQTALPP | 0.703 |

* * *

- Test system: Saccharomyces cerevisiae
- TEST: protein stability index of tFT-peptide fusion (C-terminal peptide) (PSI (0-1 scale)); higher = more stable (slower turnover)
- ASSAY_SETUP: genetic background: das1 deletion; temperature: 30 C
Reported values of protein stability index for individual entries

| RESIDUE_CODES | TEST_SYSTEM | protein stability index |
| --- | --- | --- |
| LKPWEGRIYISE [IMA1 C-terminal 12 aa] | Saccharomyces cerevisiae | 0.714 |
| RRHYSNEDSSFL [APC9 C-terminal 12 aa] | Saccharomyces cerevisiae | 0.717 |
| EDSHYGNAKKVT [FPS1 C-terminal 12 aa] | Saccharomyces cerevisiae | 0.708 |
| RSTAQRGGYSAV [ATG27 C-terminal 12 aa] | Saccharomyces cerevisiae | 0.708 |
| TLNFEEARKEYV [YDR509W C-terminal 12 aa] | Saccharomyces cerevisiae | 0.713 |
| EVDIDSLLAKLN [RLP7 C-terminal 12 aa] | Saccharomyces cerevisiae | 0.711 |
| PEMIEELDIDDE [GPD2 C-terminal 12 aa] | Saccharomyces cerevisiae | 0.707 |
| FIKKWAHYYKKF [SBE22 C-terminal 12 aa] | Saccharomyces cerevisiae | 0.711 |
| EKCSYYFLSRAH [YNL017C C-terminal 12 aa] | Saccharomyces cerevisiae | 0.687 |
| KLDVDDEENEGF [MRD1 C-terminal 12 aa] | Saccharomyces cerevisiae | 0.684 |
| DVQGICLRNDKK [SLX4 C-terminal 12 aa] | Saccharomyces cerevisiae | 0.684 |
| FLKNFTNDTFDN [BCH1 C-terminal 12 aa] | Saccharomyces cerevisiae | 0.706 |
| DMEMEAIAAERD [HMF1 C-terminal 12 aa] | Saccharomyces cerevisiae | 0.714 |
| AKYSKKKNNKNK [DEG1 C-terminal 12 aa] | Saccharomyces cerevisiae | 0.689 |
| YNINHRKSVNSV [TDA9 C-terminal 12 aa] | Saccharomyces cerevisiae | 0.706 |
| FIENVLKKRNMK [LIP5 C-terminal 12 aa] | Saccharomyces cerevisiae | 0.719 |
| QDGIKEAASALA [INO80 C-terminal 12 aa] | Saccharomyces cerevisiae | 0.679 |
| RSIKRPELGLRV [STT3 C-terminal 12 aa] | Saccharomyces cerevisiae | 0.681 |
| ETVGYEAYLENK [ADE2 C-terminal 12 aa] | Saccharomyces cerevisiae | 0.685 |
| KADNWKCKIQSA [GDA1 C-terminal 12 aa] | Saccharomyces cerevisiae | 0.69 |
| DEDDGMIIGSLW [AEP2 C-terminal 12 aa] | Saccharomyces cerevisiae | 0.7 |
| GTQVMYISEQKI [LSM6 C-terminal 12 aa] | Saccharomyces cerevisiae | 0.698 |
| LDGSREVGAAKS [UME1 C-terminal 12 aa] | Saccharomyces cerevisiae | 0.682 |
| VLGFFKRRSMKI [FRK1 C-terminal 12 aa] | Saccharomyces cerevisiae | 0.72 |
| QVVAIIKKAYEY [ADH4 C-terminal 12 aa] | Saccharomyces cerevisiae | 0.707 |
| DSSKYSLGNNSS [SUR1 C-terminal 12 aa] | Saccharomyces cerevisiae | 0.713 |
| TQEMENTKLAES [GIS1 C-terminal 12 aa] | Saccharomyces cerevisiae | 0.692 |

* * *

- Tested on: Saccharomyces cerevisiae
- TEST: protein stability index of tFT-peptide fusion (C-terminal peptide) (PSI (0-1 scale)); higher = more stable (slower turnover)
- ASSAY_SETUP: genetic background: das1 deletion; temperature: 30 C
Parameter threshold = 0.6. Response is Criterion met when protein stability index meets or exceeds it, else Criterion not met.

| RESIDUE_CODES | CLASS_ASSIGNMENT |
| --- | --- |
| RFLVVVRFYWRC | Criterion not met |
| GGGSASGWRAAA | Criterion met |
| DPPRPIMRIHMI | Criterion met |
| VRSELHINSFIH | Criterion met |
| KFKRLTKFYARQ | Criterion met |
| LRQKIIYWWLWL | Criterion not met |
| RPCLSALRFRFF | Criterion met |
| SVYLYFQVVAYG | Criterion not met |

* * *

- Test system: Saccharomyces cerevisiae
- TEST: protein stability index of tFT-peptide fusion (C-terminal peptide) (PSI (0-1 scale)); higher = more stable (slower turnover)
- ASSAY_SETUP: genetic background: das1 deletion; temperature: 30 C
MEASURED_ATTRIBUTE: protein stability index

| RESIDUE_CODES | ENDPOINT_VALUE |
| --- | --- |
| IWCAPTVDARPI [NIT1 C-terminal 12 aa] | 0.723 |
| VYDYQYIYKGKQ [SIA1 C-terminal 12 aa] | 0.701 |
| NLLLSGSLYQKN [BUD28 C-terminal 12 aa] | 0.751 |
| GWLQDKHFEKYL [YOR338W C-terminal 12 aa] | 0.705 |
| NVWDWNNWTSAT [GAL11 C-terminal 12 aa] | 0.749 |
| EKKDTEGDVDMD [SSE1 C-terminal 12 aa] | 0.678 |
| GAQPHLYIPDED [USA1 C-terminal 12 aa] | 0.69 |
| DCGWVSDAYKNH [LCL2 C-terminal 12 aa] | 0.735 |

* * *

- System: Saccharomyces cerevisiae
- TEST: protein stability index of tFT-peptide fusion (C-terminal peptide) (PSI (0-1 scale)); higher = more stable (slower turnover)
- ASSAY_SETUP: genetic background: wild type; temperature: 30 C
Reported values of protein stability index for individual entries
MEASURED_ATTRIBUTE: protein stability index

| RESIDUE_CODES | MEASURED_ATTRIBUTE | ENDPOINT_VALUE |
| --- | --- | --- |
| VGGIVGGFCRGR | protein stability index | 0.701 |
| DGPALWPRSVVD | protein stability index | 0.684 |
| LNLRIGDVMRGG | protein stability index | 0.682 |
| PPPPFLCSPFVA | protein stability index | 0.691 |
| KNDKHQTRKSTT | protein stability index | 0.703 |
| VVCSTRRPSLGS | protein stability index | 0.681 |

* * *

- System: Saccharomyces cerevisiae
- TEST: protein stability index of tFT-peptide fusion (C-terminal peptide) (PSI (0-1 scale)); higher = more stable (slower turnover)
- ASSAY_SETUP: genetic background: wild type; temperature: 30 C
MEASURED_ATTRIBUTE: protein stability index

| RESIDUE_CODES | ENDPOINT_VALUE |
| --- | --- |
| CLFPVSLPCPTN | 0.714 |
| SPLLASPSHLSL | 0.71 |
| LGVRGSMGPGGG | 0.683 |
| TVVYPFHSGGFA | 0.694 |
| MNVPRQLISRFV | 0.683 |
| PSPLAPPLPPPS | 0.701 |
| TGRRLVLGDRCM | 0.72 |
| RKTGTGETRTRR | 0.691 |
| GEVMLRYQRISF | 0.713 |
| LAFPFSPLAPQI | 0.691 |

* * *

- Test system: Saccharomyces cerevisiae
- TEST: protein stability index of tFT-peptide fusion (C-terminal peptide) (PSI (0-1 scale)); higher = more stable (slower turnover)
- ASSAY_SETUP: genetic background: wild type; temperature: 30 C

| RESIDUE_CODES | protein stability index |
| --- | --- |
| KNKRKTNLRKKT | 0.696 |
| VHDPLLPIFLIR | 0.684 |
| TPHNQPKPTPPC | 0.698 |
| SLPSSPPPSPPL | 0.717 |
| PPSPLSTLPSPH | 0.679 |
| GGREDGKRGRQK | 0.684 |
| DCAVNYVGRRRR | 0.702 |
| RLRSSTAAAAIV | 0.713 |
| SPAPPLSRPPPH | 0.695 |
| GGLVVRCGVTSS | 0.695 |
| TVERGGSLSLVV | 0.718 |
